- System: HEK-293T
- Assay Remarks: Incucyte cell viability with HEK293T; note: unitless GR value; below 1 slowed growth and below 0 cell loss
- Assay type: toxicity, cell-based
- Particulars: human, 0 h, 10 µM, compound concentration 10 uM, replicate number 2
Collected Growth Rate values appear next to each entry.

[
  {
    "Structure Smiles": "Cc1csc(-c2nnc(Nc3ccc(Oc4ncccc4-c4ccnc(N)n4)cc3)c3ccccc23)c1",
    "Study Target": "HEK-293T",
    "Growth Rate": -0.21
  }
]

Problem: Reported Growth Rate, molecule CC(=O)c1c(C)c2cnc(Nc3ccc(N4CCNCC4)cn3)nc2n(C2CCCC2)c1=O : ____
Solution: 0.78

Problem: Can you share its Growth Rate? I mean this molecule: CCc1cc2c(cc1-c1cccc(S(=O)(=O)F)c1)C(C)(C)c1[nH]c3cc(C#N)ccc3c1C2=O
Solution: 0.37

Problem: What value of measured Growth Rate is listed for CCN1C(=O)c2cc(C)ccc2N(C)c2ncccc21 ?
Solution: 0.45

Problem: GET /values?readout=Growth Rate&item= O=C(O)CCC/C=C\C[C@@H]1[C@@H](/C=C/[C@@H](O)COc2cccc(C(F)(F)F)c2)[C@H](O)C[C@@H]1O
Solution: 0.68

* * *

- Tested on: HEK-293T
- Assay Remarks: Incucyte cell viability with HEK293T; note: unitless GR value; below 1 slowed growth and below 0 cell loss
- Assay type: toxicity, cell-based
- Particulars: human, 12 h, 10 µM, compound concentration 10 uM, replicate number 2
# note: exactly -0.3 is not below, so it is -1; use 1 for Growth Rate strictly under it

[
  {
    "Compound": "O=C1NC(=Nc2c(Cl)cccc2Cl)S/C1=C\\c1ccc2nccnc2c1",
    "Study Target": "HEK-293T",
    "Qualitative Label": -1
  },
  {
    "Compound": "Clc1ccccc1C(c1ccccc1)(c1ccccc1)n1ccnc1",
    "Study Target": "HEK-293T",
    "Qualitative Label": -1
  },
  {
    "Compound": "O=C(Nc1cccc(C(F)(F)F)c1)c1cc(Cl)ccc1O",
    "Study Target": "HEK-293T",
    "Qualitative Label": 1
  }
]

Problem: Strictly below -0.3: is that where Growth Rate of NCC1CCC(CNc2nc(NCc3ccccc3OC(F)(F)F)ncc2[N+](=O)[O-])CC1 (stereo not given) sits?
Solution: -1

Problem: Lab note: Growth Rate threshold -0.3. Does this compound come in strictly under it? CN(C)CCC[C@@]1(c2ccc(F)cc2)OCc2cc(C#N)ccc21
Solution: -1

* * *

# Growth Rate values compiled below
- Tested on: HEK-293T
- Assay Remarks: Incucyte cell viability with HEK293T; note: unitless GR value; below 1 slowed growth and below 0 cell loss
- Type: toxicity, cell-based
- Particulars: human, 12 h, 10 µM, compound concentration 10 uM, replicate number 2
// return just the number, without any unit appended

Some solved entries appear below for comparison.
[
  {
    "Compound": "Cc1cc(C2CCCNC2)ccc1Nc1ncc(Br)c(NCc2cccc3c2C(C)(C)C(=O)N3)n1 (stereo not drawn)",
    "Growth Rate": 0.09
  },
  {
    "Compound": "Cn1cc(-c2ccc(-c3cncc(Cl)c3N3CCC4(CCNC4=O)CC3)cc2)cn1",
    "Growth Rate": 0.63
  },
  {
    "Compound": "CCN1C(=O)c2cc(C)ccc2N(C)c2ncccc21",
    "Growth Rate": 0.41
  },
  {
    "Compound": "CC(C)S(=O)(=O)c1ccccc1Nc1nc(N[C@@H]2CCCN(CCCCCCCNC(=O)COc3cccc4c3C(=O)N(C3CCC(=O)NC3=O)C4=O)C2)ncc1Cl (stereo partly drawn)",
    "Growth Rate": -0.59
  },
  {
    "Compound": "CN1C(=O)c2ccccc2N(C)c2nc(Nc3cnn(C4CCNCC4)c3)ncc21",
    "Growth Rate": -0.41
  },
  {
    "Compound": "COc1cc(C(=O)NC2CCN(C)CC2)ccc1Nc1ncc2c(n1)N(C1CCCC1)CC(F)(F)C(=O)N2C",
    "Growth Rate": -0.06
  },
  {
    "Compound": "CC(C)C(=O)N[C@@H]1CCN(C(=O)Nc2nc3c(s2)-c2nc(-c4ccccc4Cl)ncc2CC3)C1",
    "Growth Rate": -0.08
  },
  {
    "Compound": "Fc1ccc(-c2nc(-c3ccc4ccccc4c3F)[nH]c2-c2ccncc2)cc1",
    "Growth Rate": 0.57
  },
  {
    "Compound": "Cc1ccc2c(N)c(C(=O)NC3CCc4cc(N5CC6CCC(C5)N6)ccc4C3)sc2n1.O=CO (stereo not drawn)",
    "Growth Rate": -0.55
  },
  {
    "Compound": "O=C(Nc1cccc(C(F)(F)F)c1)c1cccc(-n2cc(-c3ccco3)nn2)c1",
    "Growth Rate": 1
  }
]

Problem: Field request: Growth Rate | item: Cn1ncnc1COc1nn2c(-c3cc(F)ccc3F)nnc2cc1C(C)(C)C
Solution: 0.63

* * *

- System: U2OS
- Assay Remarks: Incucyte cell viability with U2OS; note: unitless GR value; below 1 slowed growth and below 0 cell loss
- Assay type: toxicity, cell-based
- Particulars: human, 18 h, 10 µM, compound concentration 10 uM, replicate number 1
Growth Rate less than 0.9 is Condition met; Growth Rate greater than or equal to 0.9 is Condition not met.

[
  {
    "Compound": "CN(C)c1ccc(-c2cc3ncccc3c(OCCCCO)n2)cc1.O=C(O)C(F)(F)F",
    "Qualitative Label": "Condition met"
  },
  {
    "Compound": "CNC(=O)c1cccc(-c2ccc3c(N4CCOC[C@@H]4C)nc(N4CCOC[C@@H]4C)nc3n2)c1",
    "Qualitative Label": "Condition not met"
  },
  {
    "Compound": "C=CC(=O)Nc1cc(-c2nn(C3CCC(N4CCN(C(C)=O)CC4)CC3)c3ncnc(N)c23)ccc1Oc1ccccc1 (stereo not drawn)",
    "Qualitative Label": "Condition met"
  },
  {
    "Compound": "Cc1ccc(NS(=O)(=O)c2ccc3c(c2)C2C=CCC2C(c2ccc(C(=O)O)cc2)N3)cc1C (stereo not drawn)",
    "Qualitative Label": "Condition met"
  }
]

Problem: Dear reviewer, please state whether Cc1nn(C)c(COc2ccc(N3CCN(S(=O)(=O)N(C)C)CC3)cc2)c1-c1cccc2c(CCCOc3cccc4ccccc34)c(C(=O)O)n(CCN3CCOCC3)c12 has Growth Rate strictly beneath 0.9.
Solution: Condition met

Problem: # TODO verify Growth Rate < 0.9 strictly for this compound: CNC(=O)c1ccc2c(c1)NC(=O)/C2=C(\Nc1ccc(CN2CCCCC2)cc1)c1ccccc1.Cl.O
Solution: Condition met

Problem: Please let me know if COCc1c(-c2cc3cc(C)cc(OC)c3s2)c2c(N)ncnn2c1CN[C@@H]1CCNC1=O shows Growth Rate below 0.9.
Solution: Condition met

Problem: For the compound N#Cc1ccnc(Nc2cc(C3CCN(C4COC4)CC3)cc(N3CCC(F)(F)C3)n2)c1 , is Growth Rate under 0.9?
Solution: Condition met

Problem: Please determine if CC(C)C[C@H](NC(=O)[C@@H](O)[C@H](N)Cc1ccccc1)C(=O)O is below 0.9 in terms of Growth Rate.
Solution: Condition not met

Problem: Criterion: Growth Rate strictly below 0.9. Is it met by CC(=O)NCC(=O)N1[C@@H]2CC[C@H]1c1ccc(Nc3ncc(C(F)(F)F)c(NC4CCC4)n3)cc12 ?
Solution: Condition met

Problem: Field: below-cutoff. Rule: recorded Growth Rate strictly less than 0.9. Subject: CC(Oc1cc(-c2cnn(C3CCNCC3)c2)cnc1N)c1c(Cl)ccc(F)c1Cl (stereo not drawn)
Solution: Condition met

Problem: Criterion: Growth Rate strictly below 0.9. Is it met by CCO[C@H](COc1ccc(C(F)(F)F)cc1)CSc1ccc(OCC(=O)[O-])c(C)c1.[Na+] ?
Solution: Condition not met

* * *

- System: Fibroblast
- Assay Remarks: Incucyte cell viability with human fibroblast; note: unitless GR value; below 1 slowed growth and below 0 cell loss
- Type: toxicity, cell-based
- Particulars: 18 h, 10 µM, compound concentration 10 uM, replicate number 2
Endpoint Name: Growth Rate
The answer should be a number; do not append a unit.

Answered cases to consult:
[
  {
    "Structure Smiles": "CCCN1C(=O)c2ccc(Cl)cc2Nc2ncccc21",
    "Growth Rate": 0.62
  },
  {
    "Structure Smiles": "O=C(CCCN1CCC(O)(c2ccc(Cl)cc2)CC1)c1ccc(F)cc1",
    "Growth Rate": 0.22
  },
  {
    "Structure Smiles": "CCOC(=O)c1cnn(-c2ccc(NC(=O)C(Cl)=C(Cl)Cl)cc2)c1C(F)(F)F",
    "Growth Rate": -0.7
  },
  {
    "Structure Smiles": "CN1CCN(C(=O)c2ccc(N(C)c3ncc(C(F)(F)F)c(N[C@@H]4CCC[C@@H]4C(N)=O)n3)cc2)CC1.Cl",
    "Growth Rate": 0.35
  },
  {
    "Structure Smiles": "CC(=O)N(CCN(C)C)c1ccc(N/C(=C2\\C(=O)Nc3cc(Cl)ccc32)c2ccccc2)cn1",
    "Growth Rate": -0.76
  }
]

Problem: Look at this compound and give its reported Growth Rate. CN(C)[C@H]1CCN(c2cc(C(F)(F)F)c(C#N)c(Nc3cccc(CCC(=O)O)c3)n2)C1.O=C(O)C(F)(F)F
Solution: 0.93

Problem: So what's the measured Growth Rate for this one? Cl.Cl.NC1(c2ccc(-c3nc4ccn5c(=O)[nH]nc5c4cc3-c3ccccc3)cc2)CCC1
Solution: -0.54

Problem: Bench note: what Growth Rate did CN[C@@H](C)C(=O)N[C@H](C(=O)N1CCC[C@H]1c1nc(C(=O)c2ccc(F)cc2)cs1)C1CCCCC1 show?
Solution: 0.88

Problem: Requested field: Growth Rate. Item: COc1c(OCCCN2CCOCC2)ccc2c1N=C(NC(=O)c1cnc(N)nc1)N1CCN=C21
Solution: 0.04
